Values from PubChem BioAssay (NCI)

# System: UO-31 renal
# assay: NCI tumour cell line growth inhibition, 48 h
Each item that follows carries a reported TGI.
Number in µM, nothing else.

# compound, property, reportedMeasurement
records = [
    ("O=C(N/C(=C\\c1ccc(Oc2ccc(Cl)c(Cl)c2)cc1)c1nc2ccccc2[nH]1)c1ccccc1", "TGI", 27.6),
    ("N#Cc1nc2cc(F)c(F)cc2nc1-c1ccc(Cl)cc1", "TGI", 38.1),
    ("O=C1C(=C(C(=O)c2ccccc2)C(=O)c2ccccc2)OC(c2ccccc2)=C1C(=O)c1ccccc1", "TGI", 26.7),
]

Given item `O=C(N/N=C\c1ccc(N(CCCl)CCCl)cc1Cl)c1cccnc1` , the value recorded as its TGI is 52.9

Given item O=C(CC(C(=O)c1cccs1)c1ccsc1)c1ccco1 (centres undefined) , the value recorded as its TGI is 59

Given item `CCOC(=O)C#Cc1c(CC(=O)OCC)nnn1[C@H]1O[C@@H](CO)[C@@H]2OC(C)(C)O[C@@H]21` , the value recorded as its TGI is 10.3

Given item `Cc1ccc(/C(O)=C/c2nc3ccccc3[nH]c2=O)c(C)c1` , the value recorded as its TGI is 30.6

Given item `O=[N+]([O-])/C=C/COCc1cc2c(cc1Br)OCO2` , the value recorded as its TGI is 32.3
